Record form. Attribute: normalised response. Fill in for each entry.
Test system: MDA-MB-453
Assay: normalised response (% of control), CellTox Green; higher = less cell death (100 = DMSO, 0 = benzethonium chloride kill control)
Conditions: incubation time: 72 h
Give bare numbers, in %.

compound	normalised response / %
CN[C@@H]1C[C@H]2O[C@@](C)([C@@H]1OC)n1c3ccccc3c3c4c(c5c6ccccc6n2c5c31)C(=O)N[C@H]4O [UCN-01] (10000 nM)	78.3
CS(=O)(=O)c1ccc(C2=C(c3ccccc3)C(=O)OC2)cc1 [Rofecoxib] (1000 nM)	108
Cc1ccc(C(=O)N(CCCN)[C@@H](c2oc3cc(Cl)ccc3c(=O)c2Cc2ccccc2)C(C)C)cc1 (1 nM)	104
O=C1CCC(N2C(=O)c3ccccc3C2=O)C(=O)N1 (configuration not stated) [Thalidomide] (1000 nM)	103
C[C@]12CC[C@@H]3c4ccc(O)cc4C[C@@H](CCCCCCCCC[S+]([O-])CCCC(F)(F)C(F)(F)F)[C@H]3[C@@H]1CC[C@@H]2O (some centres not stated) [Fulvestrant] (1000 nM)	97.9
Cn1c(Nc2ccc(C(F)(F)F)cc2)nc2cc(Oc3ccnc(-c4ncc(C(F)(F)F)[nH]4)c3)ccc21 [RAF265] (1000 nM)	102

Next up:
Query: If you can, please state the reported normalised response value of COc1cc([C@@H]2c3cc4c(cc3[C@@H](O[C@@H]3O[C@@H]5CO[C@@H](C)O[C@H]5[C@H](O)[C@H]3O)[C@H]3COC(=O)[C@H]23)OCO4)cc(OC)c1O [Etoposide] (100 nM) .
Result: 102
